A collection of compounds and their measured Ki
study_system: human recombinant bradykinin B1 receptor (Homo sapiens, UniProt P46663)
Construct: purchased Euroscreen ES-091; host or cells: CHO cells
test_description: Human recombinant bradykinin B1 receptor binding
run_conditions: radioligand [3H]-[Des-Arg10] Kallidin, CHO cell membranes; read-out: B1 binding
Counter-ions that a name gives are not always drawn.

Please review the following examples before continuing.
Cc1ccnc(N2CCN(CCNC(=O)c3ccc(S(=O)(=O)Nc4ccccc4Oc4ccc(Cl)cc4Cl)cc3)CC2)c1 [Example 54]
20 to 100 nM
O=C(NCCCN1CCC(N2CCCCC2)CC1)c1ccc(S(=O)(=O)Nc2cc(F)ccc2Oc2ccc(Br)cc2)cc1 [Example 102]
< 20 nM
O=C(NCCCCC1CCNCC1)c1ccc(S(=O)(=O)Nc2ccccc2Oc2ccc(Br)cc2Cl)cc1 [Example 167, hydrochloride]
20 to 100 nM
O=C(CCNC(=O)c1ccc(S(=O)(=O)Nc2ccccc2Oc2ccc(Cl)cc2Cl)cc1)NCC1CCNCC1 [Example 37]
20 to 100 nM
O=C(NCCN1CCN(c2ccccn2)CC1)c1ccc(S(=O)(=O)Nc2ccccc2Oc2ccc(Cl)cc2Cl)cc1 [Example 20, trifluoroacetate]
20 to 100 nM

Entry CC(CNC(=O)c1ccc(S(=O)(=O)Nc2ccccc2Oc2ccc(Cl)cc2Cl)cc1)N1CCN(c2ccncc2)CC1 (centres unmarked) [Example 28] needs its Ki filled in; supply it. < 20 nM

Entry O=C(NCCCN1CCN(c2ccncc2)CC1)c1ccc(S(=O)(=O)Nc2cc(F)ccc2Oc2ccc(Br)cc2)cc1 [Example 105] needs its Ki filled in; supply it. < 20 nM

Entry O=C(NCCCN1CCC(N2CCCCC2)CC1)c1ccc(S(=O)(=O)Nc2ccccc2Oc2ccccc2)cc1 [Example 152] needs its Ki filled in; supply it. 20 to 100 nM

Entry O=C(CCNC(=O)c1ccc(S(=O)(=O)Nc2ccccc2Oc2ccc(Cl)cc2Cl)cc1)NCCC1CCNCC1 [Example 56, hydrochloride] needs its Ki filled in; supply it. < 20 nM

Entry O=C(NCCC(=O)N1CCC(N2CCCCC2)CC1)c1ccc(S(=O)(=O)Nc2ccccc2Oc2ccc(Cl)cc2Cl)cc1 [Example 62, trifluoroacetate] needs its Ki filled in; supply it. < 20 nM

---

A collection of compounds and their measured pIC50
study_system: recombinant human B1 receptors (Homo sapiens)
Construct: host or cells: CHO (CHO-B1)
Sequence (P46663 1-353): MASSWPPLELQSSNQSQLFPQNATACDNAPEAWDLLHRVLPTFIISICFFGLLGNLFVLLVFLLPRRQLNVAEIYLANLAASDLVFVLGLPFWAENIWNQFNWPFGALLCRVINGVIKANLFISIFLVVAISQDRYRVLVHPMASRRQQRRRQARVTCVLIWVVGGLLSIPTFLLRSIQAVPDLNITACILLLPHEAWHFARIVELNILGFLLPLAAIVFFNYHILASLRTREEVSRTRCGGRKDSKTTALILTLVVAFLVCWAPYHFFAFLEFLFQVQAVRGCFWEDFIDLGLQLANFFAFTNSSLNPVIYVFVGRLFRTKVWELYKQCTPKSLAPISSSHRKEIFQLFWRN
test_description: Functional assay: cytosolic calcium ion concentration measured with plate reader fluorimeter in CHO-B1 cells, agonist LysDABK
Type: cell-based
run_conditions: CHO-B1 cells, LysDABK at EC80, [Ca2+]i; read-out: B1 func.
pIC50: −log10 of the molar value. Where a name gives a salt, the structure may show the parent alone.

Please review the following examples before continuing.
O=C(NCCCC1CCNCC1)c1ccc(S(=O)(=O)Nc2ccccc2Oc2ccc(Cl)cc2Cl)cc1 [Example 137]
7.00 to 7.70
O=C(NCCCN1CCN(c2ccncc2)CC1)c1ccc(S(=O)(=O)Nc2cc(F)ccc2Oc2ccc(Br)cc2)cc1 [Example 105]
> 7.70
O=C(NCCCN1CCC(N2CCCCC2)CC1)c1ccc(S(=O)(=O)Nc2cc(F)ccc2Oc2ccc(Br)cc2)cc1 [Example 102]
> 7.70
CN1CCC(N2CCC(CCNC(=O)c3ccc(S(=O)(=O)Nc4ccccc4Oc4ccc(Cl)cc4Cl)cc3)CC2)CC1 [Example 24]
> 7.70
O=C(NCCNC(=O)C1CCNCC1)c1ccc(S(=O)(=O)Nc2ccccc2Oc2ccc(Cl)cc2Cl)cc1 [Example 29, hydrochloride]
7.00 to 7.70

Entry O=C(c1ccc(S(=O)(=O)Nc2ccccc2Oc2ccc(Cl)c(Cl)c2)cc1)N1CCN(CCCN2CCCCC2)CC1 [Example 87] needs its pIC50 filled in; supply it. 6.30 to 7.00

Entry O=C(Nc1ccc(N2CCC(N3CCCCC3)CC2)cc1)c1ccc(S(=O)(=O)Nc2ccccc2Oc2ccc(Br)cc2Cl)cc1 [Example 169] needs its pIC50 filled in; supply it. > 7.70
